Record form. Attribute: NOAEL. Fill in for each entry.
Assay: Safe dosage based on the toxicity findings
Details: rat, in vivo

NOAEL recorded for this compound, Clc1ccc(C(Cn2ccnc2)OCc2csc3c(Cl)cccc23)c(Cl)c1 (centres unmarked) , is ~150 mg/kg

NOAEL recorded for this compound, Clc1ccc(COC(Cn2ccnc2)c2ccc(Cl)cc2Cl)c(Cl)c1 (centres unmarked) [Miconazole, reference compound] , is ~10 mg/kg

* * *

Assay: Chronic toxicity in rats
Type: in vivo, rat
Details: rat, in vivo; 100 mg/kg or more dosage
endpoint: mortality (%)
Answer with a number only, understood to be in %.

mortality recorded for this compound, Clc1ccc(COC(Cn2ccnc2)c2ccc(Cl)cc2Cl)c(Cl)c1 (stereo not shown) [Miconazole, reference compound] , is 32

* * *

Assay: Acute toxicity in Swiss mice i.p.
Conditions: mouse, in vivo, ip
endpoint: LD50

LD50 recorded for this compound, Clc1ccc(C(Cn2ccnc2)OCc2coc3cc(Cl)cc(Cl)c23)c(Cl)c1 (stereo not shown) [Martin compound 4, reference compound] , is < 1000 mg/kg

* * *

Record form. Attribute: LD50. Fill in for each entry.
Assay: Acute toxicity (LD50) in rat, three administration routes
Conditions: in vivo, sc, subcutaneous, males

LD50 recorded for this molecule, Clc1ccc(COC(Cn2ccnc2)c2ccc(Cl)cc2Cl)c(Cl)c1 (centres unmarked) [Miconazole, reference compound] , is > 5000 mg/kg

LD50 recorded for this molecule, Clc1ccc(C(Cn2ccnc2)OCc2csc3c(Cl)cccc23)c(Cl)c1 (centres unmarked) , is > 8000 mg/kg

* * *

Assay: Acute toxicity (LD50) in mouse, three administration routes
Settings: in vivo, po, males
endpoint: LD50 (mg/kg)
Answer with a number only, understood to be in mg/kg.

LD50 recorded for this compound, Clc1ccc(COC(Cn2ccnc2)c2ccc(Cl)cc2Cl)c(Cl)c1 (stereo not shown) [Miconazole, reference compound] , is 2560

All figures here come from patent US5135943A.
